System: Plasmodium falciparum
assay.procedure: GSK_TCMDC: Inhibition of Plasmodium falciparum 3D7 in whole erythrocytes, using parasite LDH activity as an index of growth.
Type: functional, organism-based
measurement.parameters: Plasmodium falciparum, 3D7
Below, each entry is listed with its recorded XC50.
# value in nM; strip the unit string

Answered cases to consult:
>  <compound>
Cc1nc2sccn2c1C(=O)NCCc1ccccc1Cl

>  <numeric.result>
800

$$$$
>  <compound>
CCCCNC(=O)C(C)NC(=O)c1ccc(O)c(-c2ccc(Cl)c(Cl)c2)c1 (stereo not given)

>  <numeric.result>
823

$$$$
>  <compound>
CCOc1ccc2c(=NN=Cc3ccccc3OC)cc(C)[nH]c2c1

>  <numeric.result>
496

$$$$
>  <compound>
O=C(NCc1ccccc1)Nc1ccc(-c2cccc(-c3nc4cc(C(F)(F)F)ccc4[nH]3)c2)cc1

>  <numeric.result>
662

$$$$
>  <compound>
COc1cc(NC(=O)N2CCOC(CCN3CCC(c4ccccc4)CC3)(c3ccc(Cl)c(Cl)c3)C2)cc(OC)c1OC (stereo not given)

>  <numeric.result>
65.1

$$$$
>  <compound>
N=C(N)NC(=O)Nc1cc(Cl)c(Br)c(Cl)c1

>  <numeric.result>
469

$$$$
>  <compound>
CC(C)CNC(=O)c1cncc(-c2ccc(CNC3Cc4ccccc4C3)cc2)c1

>  <numeric.result>
698

$$$$
>  <compound>
COCC(=O)Nc1nc2ccccc2[nH]1

>  <numeric.result>
301

$$$$
>  <compound>
CCn1c(C2CCN(CCC3CCN(C(=O)/C=C/c4ccc(Cl)c(Cl)c4)CC3)CC2)nc2ccccc21

>  <numeric.result>
1080

$$$$
>  <compound>
CCc1ccc(CN2CCC(CN(C(=O)c3ccccc3)c3ccc(Cl)cc3)CC2)cc1

>  <numeric.result>
991

$$$$

Retrieve XC50 measured for COc1cc(NC(=O)C(c2ccc(Cl)cc2)C(C)C)cc(OC)c1OC (stereo not given) and print it.
534

Retrieve XC50 measured for `CCN(CC)CCN(Cc1ccc(-c2ccc(C(F)(F)F)cc2)cc1)C(=O)Cn1c(CCc2cc(F)c(F)c(F)c2)nc(=O)c2ccccc21` and print it.
827

Retrieve XC50 measured for `Cc1cc(OCCCNC(=N)c2ccc3ccccc3c2)c(C(C)C)cc1Cl` and print it.
973

###

System: Plasmodium falciparum
assay.procedure: GSK_TCMDC: Inhibition of Plasmodium falciparum 3D7 in whole erythrocytes, using parasite LDH activity as an index of growth.
Assay type: functional, organism-based
measurement.parameters: Plasmodium falciparum, 3D7
readout.name: XC50 (nM)
# value in nM; strip the unit string

Retrieve XC50 measured for `CN(C)CCCOc1ccccc1CN1CC[C@H](NC(=O)c2ccc(Cl)c(Cl)c2)C1` and print it.
1110

Retrieve XC50 measured for Cc1cc2c(/C=C/C(=O)NC3CCC(CCN4CCc5ccc(C#N)cc5CC4)CC3)cccc2[nH]1 (stereo not given) and print it.
840

###

Below, each entry is listed with its recorded XC50.
Test system: Plasmodium falciparum
assay.procedure: GSK_TCMDC: Inhibition of Plasmodium falciparum 3D7 in whole erythrocytes, using parasite LDH activity as an index of growth.
Assay type: functional, organism-based
measurement.parameters: Plasmodium falciparum, 3D7

Answered cases to consult:
>  <compound>
OC(CNc1ccnc(Nc2cccc(OCCCN3CCOCC3)c2)n1)c1ccccc1 (stereo not given)

>  <XC50>
0.924 µM

$$$$
>  <compound>
Nc1c2ccccc2nc2ccc(-c3ccccc3)cc12

>  <XC50>
0.14 µM

$$$$
>  <compound>
O=S(=O)(NCCN1CCCC1)c1ccc(-c2ccc(CNC3Cc4ccccc4C3)cc2)cc1

>  <XC50>
0.664 µM

$$$$
>  <compound>
C/C=C1\CN2CC[C@H]1C[C@H]2[C@H](O)c1ccnc2ccc(OC)cc12

>  <XC50>
0.318 µM

$$$$
>  <compound>
Cc1ccc(Oc2ccc(CNc3nc(Nc4cccc(F)c4)nc(Nc4cccc(F)c4)n3)cc2)cc1

>  <XC50>
1.21 µM

$$$$

Retrieve XC50 measured for `O=C(Nc1ccccc1Br)N[C@@H]1CCN(c2ccnc3ccccc23)C1` and print it.
0.935 µM

Retrieve XC50 measured for CCOc1cc2c(cc1OCC)C(c1ccc(O)c(Cl)c1)NCC2 (stereo not given) and print it.
0.79 µM

Retrieve XC50 measured for `CCOC(=O)c1ccc(N=C2SC(=Cc3cc(Br)ccc3O)C(=O)N2C)cc1` and print it.
0.998 µM

Retrieve XC50 measured for CCN(CC)CCCC(C)Nc1ccnc2ccc(-c3ccccc3)cc12 (stereo not given) and print it.
0.652 µM

Retrieve XC50 measured for `CN1CCN(CCCNCc2ccc(Nc3nccc(Nc4ccc(Oc5ccccc5)cc4)n3)cc2)CC1` and print it.
0.635 µM

###

Below, each entry is listed with its recorded XC50.
Test system: Plasmodium falciparum
assay.procedure: GSK_TCMDC: Inhibition of Plasmodium falciparum 3D7 in whole erythrocytes, using parasite LDH activity as an index of growth.
Format: functional, organism-based
measurement.parameters: Plasmodium falciparum, 3D7
# value in nM; strip the unit string

Answered cases to consult:
>  <compound>
COc1ccc2c(c1)CC(CNC[C@H](O)c1cccc(Cl)c1)CC2 (some centres undefined)

>  <endpoint.unit>
nM

>  <XC50>
988

$$$$
>  <compound>
Nc1c(Cl)cc(C(O)CNCCCCCCOCCC=C2CCOCC2)cc1Cl (centres undefined)

>  <endpoint.unit>
nM

>  <XC50>
634

$$$$
>  <compound>
CN1CCN(Cc2ccc(-c3cc4c(Nc5ccc(OCc6cccc(F)c6)c(Cl)c5)ncnc4s3)[nH]2)CC1

>  <endpoint.unit>
nM

>  <XC50>
766

$$$$
>  <compound>
CC(C)n1ncc2c(C(=O)N3CCCCCC3)cc(-c3ccccc3)nc21

>  <endpoint.unit>
nM

>  <XC50>
789

$$$$
>  <compound>
CN(C)CCN(C)Cc1ccc(-c2ccc3c(Nc4ccc(Oc5ccccn5)cc4)ccnc3c2)o1

>  <endpoint.unit>
nM

>  <XC50>
424

$$$$
>  <compound>
CC(C)(C)c1cc(C(=O)N2CCC(c3ccccn3)CC2)n(Cc2ccccc2)n1

>  <endpoint.unit>
nM

>  <XC50>
955

$$$$
>  <compound>
C=CCn1cc(C2CCN(CCCCNC(=O)c3sc(-c4ccc(C(F)(F)F)cc4)nc3CO)CC2)c2cc(OC)ccc21

>  <endpoint.unit>
nM

>  <XC50>
1040

$$$$
>  <compound>
O=c1cc(NCCC(CNCc2ccc(Br)o2)NCc2cc(Br)cc(Br)c2)[nH]c2ccccc12 (centres undefined)

>  <endpoint.unit>
nM

>  <XC50>
860

$$$$

Retrieve XC50 measured for `COc1ccc(-c2cccc(NC(=O)c3cccc(C#N)c3)c2)cc1CN1CCCC1` and print it.
748

###

System: Plasmodium falciparum
assay.procedure: GSK_TCMDC: Inhibition of Plasmodium falciparum 3D7 in whole erythrocytes, using parasite LDH activity as an index of growth.
Type: functional, organism-based
measurement.parameters: Plasmodium falciparum, 3D7
readout.name: XC50 (nM)
# value in nM; strip the unit string

>  <compound>
Cc1ccc(NC(=O)c2ccc(CN3CCCN(CCC(C)C)CC3)cc2)cc1C

>  <XC50 / nM>
913

$$$$

Quote Plasmodium falciparum XC50 for entry `O=C(Nc1nc(-c2ccccn2)cs1)c1ccc(S(=O)(=O)N2CCc3ccccc32)cc1` .
830

Quote Plasmodium falciparum XC50 for entry `Cc1cccc2nc(-c3cccc(-c4ccc(NC(=O)c5cnn6cccnc56)cc4)c3)[nH]c12` .
212

Quote Plasmodium falciparum XC50 for entry O=C(Nc1ccc(Cl)cc1)OCCn1nnnc1C(c1ccc(Cl)cc1)N1CCOCC1 (stereo not given) .
1180

Quote Plasmodium falciparum XC50 for entry `Cc1cc(C2CCN(CCCCNC(=O)c3ccc(NC(=O)c4ccc(Cl)cc4)cc3)CC2)c(C)cc1OCc1cccnc1` .
603

###

System: Plasmodium falciparum
assay.procedure: GSK_TCMDC: Inhibition of Plasmodium falciparum 3D7 in whole erythrocytes, using parasite LDH activity as an index of growth.
Type: functional, organism-based
measurement.parameters: Plasmodium falciparum, 3D7
Rule: measured XC50 below 800 nM gets YES; anything equal to or greater than 800 nM gets NO.

>  <compound>
O=C(NC1CCN(Cc2ccc(Cl)cc2)CC1)c1cn(-c2ccccc2)nc1-c1cccnc1

>  <category.label>
NO

$$$$
>  <compound>
CNCCNCc1ccc(-c2ccc(-c3nc4cc(C(F)(F)F)ccc4[nH]3)cc2)cc1

>  <category.label>
YES

$$$$
>  <compound>
CCC(=O)N[C@@H]1CN[C@@H](C#Cc2cc3c(Nc4ccc(OCc5cccc(F)c5)c(Cl)c4)ncnc3s2)C1

>  <category.label>
NO

$$$$

Here is the next item to consider.
Determine if COc1ccc(CC(C)NCC(O)c2cccc(C(F)(F)F)c2)cc1F (stereo not given) shows XC50 strictly lower than 800 nM.
NO
